# Tested System: human PF4 (Homo sapiens)
# Construct: PF4 is a 70 amino acid, lysine-rich 7.8 kDa platelet-specific protein; made in house; host or cells: Escherichia coli BL21DE3 pLysS (pT7-7) and/or Drosophila S2 cells
# Sequence (P02776 32-101): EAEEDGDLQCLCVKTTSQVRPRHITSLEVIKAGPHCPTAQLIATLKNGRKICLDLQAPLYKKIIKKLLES
# Assay Explanation: Inhibition of PF4 tetramer formation (BS3 cross-linking, SDS-PAGE)
# Assay type: biochemical
# Particulars: 3 μM inhibitor (column A); read-out: % inhibition of PF4 tetramer formation at single concentration of inhibitor
Mark y for reported inhibition at 3 µM of 60% or greater; mark n for anything smaller.

CC(C)(C)OCC(=O)C1C(=O)c2ccc(C(=O)c3ccc4c(c3)C(=O)C(C(=O)COC(C)(C)C)C4=O)cc2C1=O (stereo not drawn); n
C[C@H](NC(=O)C1C(=O)c2ccc(Oc3ccc4c(c3)C(=O)C(C(=O)N[C@@H](C)C(=O)O)C4=O)cc2C1=O)C(=O)O (stereo partly drawn); y
CS(=O)(=O)N1CCC(NC(=O)C2C(=O)c3ccc(S(=O)(=O)c4ccc5c(c4)C(=O)C(C(=O)NC4CCN(S(C)(=O)=O)CC4)C5=O)cc3C2=O)CC1 (stereo not drawn); y
C[C@H](NC(=O)C1C(=O)c2ccc(S(=O)(=O)c3ccc4c(c3)C(=O)C(C(=O)N[C@@H](C)C(=O)O)C4=O)cc2C1=O)C(=O)O (stereo partly drawn); n
O=C1c2ccc(S(=O)(=O)c3ccc4c(c3)C(=O)C(C(=S)NC3CC3)C4=O)cc2C(=O)C1C(=S)NC1CC1 (stereo not drawn); n
O=C(CN1CCCC1=O)C1C(=O)c2ccc(C#Cc3ccc4c(c3)C(=O)C(C(=O)CN3CCCC3=O)C4=O)cc2C1=O (stereo not drawn); n
O=C(c1ccc2c(c1)C(=O)C(C(=O)CCC(=O)c1cccc(Cl)c1Cl)C2=O)c1ccc2c(c1)C(=O)C(C(=O)CCC(=O)c1cccc(Cl)c1Cl)C2=O (stereo not drawn); n
CS(=O)(=O)N1CCC(NC(=O)C2C(=O)c3ccc(C(=O)c4ccc5c(c4)C(=O)C(C(=O)NC4CCN(S(C)(=O)=O)CC4)C5=O)cc3C2=O)CC1 (stereo not drawn); y
O=C(c1ccc2c(c1)C(=O)C(C(=O)C1CCCS1(=O)=O)C2=O)c1ccc2c(c1)C(=O)C(C(=O)C1CCCS1(=O)=O)C2=O (stereo not drawn); n
CC(C)OCC(=O)C1C(=O)c2ccc(S(=O)(=O)c3ccc4c(c3)C(=O)C(C(=O)COC(C)C)C4=O)cc2C1=O (stereo not drawn); y
CC(C)(C)OC(=O)N1CC[C@@H](C(=O)C2C(=O)c3ccc(S(=O)(=O)c4ccc5c(c4)C(=O)C(C(=O)[C@@H]4CCN(C(=O)OC(C)(C)C)C4)C5=O)cc3C2=O)C1 (stereo partly drawn); y
O=C(COC1CCCCC1)C1C(=O)c2ccc(S(=O)(=O)c3ccc4c(c3)C(=O)C(C(=O)COC3CCCCC3)C4=O)cc2C1=O (stereo not drawn); y
